# ASSAY_SUMMARY: Lipophilicity was measured in octanol/buffer (pH 7.4)
# Format: physicochemical
MEASURED_ENDPOINT: logD

Worked cases, answers included:
SAMPLE_SMILES | logD
Cc1ccc(NC(=O)c2[nH]c(C3(C)CCCCC3)nc2CCC23CC4CC(CC(C4)C2)C3)cc1C(=O)O | 4.91
Cc1cc(C)c(-c2nc(C(=O)Nc3ccc(C)c(C(=O)O)c3)c(CCC34CC5CC(CC(C5)C3)C4)[nH]2)c(C)c1 | 4.9
Cc1cc(C)c(-c2nc(C(=O)Nc3cccc(C(=O)O)c3)c(COC34CC5CC(CC(C5)C3)C4)[nH]2)c(C)c1 | 3.02

I. O=C(O)c1cccc(NC(=O)c2nc(C3CCCCC3)[nH]c2COC23CC4CC(CC(C4)C2)C3)c1
II. O=C(O)c1cccc(NC(=O)c2[nH]c(C3CCCCC3)nc2CCC23CC4CC(CC(C4)C2)C3)c1
Identify the item whose logD is the smaller number: I or II Give the label of your selection. I
